Where these numbers come from: patent US20260242478A1

Recorded Anti-CD28 Fab signal (phage binding ELISA) by entry
target: Anti-CD28 Fab (SEQ ID NOs: 696, 697) (biotinylated (site not stated)); assay: phage binding ELISA; biotinylated anti-CD28 Fab on neutravidin plates, clonal phage supernatant, anti-M13 HRP detection
Sequence (VH, as listed by the source, chain 1 of 2): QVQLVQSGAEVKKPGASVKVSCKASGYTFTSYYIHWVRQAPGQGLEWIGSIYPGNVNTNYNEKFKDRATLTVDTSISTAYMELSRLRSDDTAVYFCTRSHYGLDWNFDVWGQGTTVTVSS
Sequence (VL, as listed by the source, chain 2 of 2): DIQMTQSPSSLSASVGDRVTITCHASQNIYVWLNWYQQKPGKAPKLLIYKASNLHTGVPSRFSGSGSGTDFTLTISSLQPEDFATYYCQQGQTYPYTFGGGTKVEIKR

INSERT INTO assay_data (binder, experimental_value) VALUES
  ('YCDGHLPVYMAKCL (tested as crude phage supernatant) [Phage-645]', 2.11),
  ('YCSGHAPIYMAKCL (tested as crude phage supernatant) [Phage-650]', 2.1),
  ('YCEGHSPQYMQKCL (tested as crude phage supernatant) [Phage-652]', 2.1);

Moving on to another binder below.
-- ask Requested field: Anti-CD28 Fab signal (phage binding ELISA). Item: YCAGHLPQYMEKCM (tested as crude phage supernatant) [Phage-656]
-- reply 2.09
